The reader will find reported inhibition values listed item by item below.
Biological target: Pantothenate synthetase (Mycobacterium tuberculosis (strain ATCC 25618 / H37Rv))
Test: Coupled enzyme confirmation of inhibitors against recombinant Mtb PanC (AID 375);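 also: 0% = full reaction with vehicle and 100% = no enzyme background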
Settings: coupled enzyme assay; at 10 µM, stronger effect = higher value
Reply numerically in %, unit not repeated.

Answered examples (3):
compound	measure.name	units.text	reported.value
COc1ccc(-c2nc(CSCC(=O)NCc3ccc4c(c3)OCO4)c(C)o2)cc1OC	inhibition	%	0
COC(=O)C1=C(C)NC(C)=C(C(=O)OC)C1C1CC=CCC1 (configuration not stated)	inhibition	%	3
COC(=O)C1C(=O)c2c([nH]c(C(=O)OCCOC(C)C)c2C)CC1C (configuration not stated)	inhibition	%	0

Task: Would you kindly share the measured inhibition for Cc1ccc(C2/C(=C(/O)c3cnn(-c4ccccc4)c3C)C(=O)C(=O)N2CCN2CCOCC2)o1 (configuration not stated) ?
Result: 1

Task: Would you kindly share the measured inhibition for O=C(O)C1CC(=O)N(c2ccc(OCc3ccccc3Cl)cc2)C1 (configuration not stated) ?
Result: 0

Task: Would you kindly share the measured inhibition for COc1ccc2nc(N3CCC(C)CC3)c(C#N)cc2c1 ?
Result: 7

----------
Target: Pantothenate synthetase (Mycobacterium tuberculosis (strain ATCC 25618 / H37Rv))
Test: Coupled enzyme confirmation of inhibitors against recombinant Mtb PanC (AID 375);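 also: 0% = full reaction with vehicle and 100% = no enzyme background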
Settings: coupled enzyme assay; at 10 µM, stronger effect = higher value
Active and inactive are the calls of the source. No rule for the calls is given here.
measure.name: inhibition

Answered examples (5):
compound	tested.on	inhibition
COc1ccc(CN2C(=O)C(O)(CC(=O)c3c(C)n[nH]c3C)c3ccccc32)cc1OC (stereo unspecified)	Pantothenate synthetase (Mycobacterium tuberculosis (strain ATCC 25618 / H37Rv))	0% (inactive)
CCCn1c(SCC(=O)Nc2nnc(-c3ccccc3)s2)nnc1-c1ccccn1	Pantothenate synthetase (Mycobacterium tuberculosis (strain ATCC 25618 / H37Rv))	0% (inactive)
C/C=C/COC(=O)c1[nH]c2c(c1C)C(=O)CC(c1ccc(N(C)C)cc1)C2 (stereo unspecified)	Pantothenate synthetase (Mycobacterium tuberculosis (strain ATCC 25618 / H37Rv))	1% (inactive)
Cc1nc(NC(=O)c2csc3ccccc23)sc1C	Pantothenate synthetase (Mycobacterium tuberculosis (strain ATCC 25618 / H37Rv))	0% (inactive)
O=C(C1CCCN(S(=O)(=O)c2cccnc2)C1)N1CCn2c1nc1ccccc12 (stereo unspecified)	Pantothenate synthetase (Mycobacterium tuberculosis (strain ATCC 25618 / H37Rv))	0% (inactive)

Task: Would you kindly share the measured inhibition for CC1CC(C)CN(c2ncnc3c2cnn3-c2ccc(Cl)cc2)C1 (stereo unspecified) ?
Result: 1% (inactive)

Task: Would you kindly share the measured inhibition for CN(C)c1nc(Nc2ccc(Cl)cc2)nc(OCC#N)n1 ?
Result: 6% (inactive)

Task: Would you kindly share the measured inhibition for CCOC(=O)c1ccc(NC(=O)CSCc2ccco2)cc1 ?
Result: 0% (inactive)

----------
Biological target: Pantothenate synthetase (Mycobacterium tuberculosis (strain ATCC 25618 / H37Rv)) (UniProt P9WIL5)
Sequence (P9WIL5 whole entry, looked up): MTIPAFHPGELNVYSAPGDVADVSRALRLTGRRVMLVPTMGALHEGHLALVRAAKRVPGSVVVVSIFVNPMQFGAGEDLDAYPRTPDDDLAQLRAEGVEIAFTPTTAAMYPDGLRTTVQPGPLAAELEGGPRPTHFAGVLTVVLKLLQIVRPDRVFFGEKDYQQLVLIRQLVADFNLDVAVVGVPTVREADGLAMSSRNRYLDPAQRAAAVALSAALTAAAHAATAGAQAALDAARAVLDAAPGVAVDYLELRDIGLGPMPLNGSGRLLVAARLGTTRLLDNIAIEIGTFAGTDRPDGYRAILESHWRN
Assay: Coupled enzyme confirmation of inhibitors against recombinant Mtb PanC (AID 375);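 also: 0% = full reaction with vehicle and 100% = no enzyme background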
Details: coupled enzyme assay; at 10 µM, stronger effect = higher value
The reader will find reported inhibition values listed item by item below.
Reply numerically in %, unit not repeated.

Answered examples (4):
molecular.string	inhibition (%)
NC(=O)C1(N2CCCCC2)CCN(CC(=O)Nc2cc(Cl)ccc2Cl)CC1	3
O=C(Cc1cccs1)Nc1ccccc1NC(=O)Cc1cccs1	0
CCCn1c(SCC(=O)NC(=O)NCc2ccco2)n[nH]c1=O	0
C=CCn1cnc2c(c1=O)c1nc3ccccc3nc1n2-c1ccc(C)cc1	0

Task: Would you kindly share the measured inhibition for CCOc1ccc(-c2noc(-c3ccncc3)n2)cc1OCC ?
Result: 4

Task: Would you kindly share the measured inhibition for CCn1c(=N)n(CC(=O)C23CC4CC(CC(C4)C2)C3)c2ccccc21 ?
Result: 0

----------
The reader will find reported inhibition values listed item by item below.
Experiment: yeast transport mutant growth inhibition pilot in 384-well plates, post-Golgi transport modulator project (AID 636)
Conditions: absorbance 615 nm, about 18 h, stronger effect = higher value
Reply numerically in %, unit not repeated.

compound	units.text	inhibition
C#C[C@]1(O)CC[C@H]2[C@@H]3CCC4=CC(=O)CC[C@]4(C)[C@H]3CC[C@@]21C	%	-1.69

Task: Would you kindly share the measured inhibition for O=C(COc1ccc2ccccc2c1)N1CCN(C2CCN(Cc3ccccc3)CC2)CC1 ?
Result: -0.13

Task: Would you kindly share the measured inhibition for O=C1CC[C@@]2(O)[C@H]3Cc4ccc(O)c5c4[C@@]2(CCN3CC2CC2)[C@H]1O5 ?
Result: 0.26

Task: Would you kindly share the measured inhibition for CN(C)c1cc(N)c2c(n1)CCC2 (tested in a mixture with another compound) ?
Result: -4.49

Task: Would you kindly share the measured inhibition for N#Cc1ccccc1Cn1cc(C(=O)C2CC2)c2ccccc21 ?
Result: -3.38

Task: Would you kindly share the measured inhibition for COC(=NC1CCCC1)C(O)c1c[nH]c2ccccc12 (stereo not given) ?
Result: -0.82

Task: Would you kindly share the measured inhibition for CN1CCC(OC(=O)C2c3ccccc3Oc3ccccc32)CC1 ?
Result: -0.39

Task: Would you kindly share the measured inhibition for [N-]=[N+]=CC(=O)OC[C@H](N)C(=O)O ?
Result: 1.56

----------
The reader will find reported inhibition values listed item by item below.
Biological target: Pantothenate synthetase (Mycobacterium tuberculosis (strain ATCC 25618 / H37Rv))
Assay: Coupled enzyme confirmation of inhibitors against recombinant Mtb PanC (AID 375);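 also: 0% = full reaction with vehicle and 100% = no enzyme background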
Settings: coupled enzyme assay; at 10 µM, stronger effect = higher value
Reply numerically in %, unit not repeated.

Answered examples (5):
compound	inhibition [%]
Cc1cc(NC(=O)CCOc2ccccc2)no1	0
COc1ccc(CCN(Cc2cc3cccc(C)c3[nH]c2=O)C(=O)N2CCCC2)cc1OC	0
O=C1c2ccccc2NC(c2cccc(F)c2)N1Cc1ccco1 (stereo unspecified)	0
COc1ccc(C2CC(c3ccc(Cl)cc3Cl)n3nc(N)nc3N2)cc1 (stereo unspecified)	0
CCCc1ccc(C(C)NC(=O)c2cnccn2)cc1 (stereo unspecified)	0

Now look at this one.
Task: Would you kindly share the measured inhibition for CC(NO)C(C)(C)NO (stereo unspecified) ?
Result: 8

----------
Molecular target: Pantothenate synthetase (Mycobacterium tuberculosis (strain ATCC 25618 / H37Rv)) (UniProt P9WIL5)
Assay: Coupled enzyme confirmation of inhibitors against recombinant Mtb PanC (AID 375);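 also: 0% = full reaction with vehicle and 100% = no enzyme background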
Conditions: coupled enzyme assay; at 10 µM, stronger effect = higher value
Note to self: values exactly at 2% are T. So inhibition at or above 2% is T, below is F.

molecular.string	assigned.category
Cc1cc(=O)oc2c1ccc1oc(/C(=N/O)c3ccccc3)c(C)c12	F

Task: Kindly determine if inhibition recorded for COc1cccc(NC(=O)CN2CCN(c3ccccc3F)CC2)c1 is above or exactly 2%.
Result: T

Task: Kindly determine if inhibition recorded for O=C(CCCCC(=O)NCc1cccs1)NCc1cccs1 is above or exactly 2%.
Result: T

Task: Kindly determine if inhibition recorded for Cc1cccc(-c2noc(CCC(=O)Nc3ccccc3)n2)c1 is above or exactly 2%.
Result: T

Task: Kindly determine if inhibition recorded for CCn1nccc1C(=O)Nc1nccs1 is above or exactly 2%.
Result: T

Task: Kindly determine if inhibition recorded for COCCNC(=O)NC(=O)COC(=O)Cc1ccc2c(c1)OCCO2 is above or exactly 2%.
Result: T

----------
Target: Pantothenate synthetase (Mycobacterium tuberculosis (strain ATCC 25618 / H37Rv))
Assay: Coupled enzyme confirmation of inhibitors against recombinant Mtb PanC (AID 375);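 also: 0% = full reaction with vehicle and 100% = no enzyme background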
Conditions: coupled enzyme assay; at 10 µM, stronger effect = higher value
Note to self: values exactly at 1% are t. So inhibition at or above 1% is t, below is f.

compound	assigned.category
COc1cc(OC)c(-c2nn3c(C4CCCCC4)nnc3s2)cc1OC	f
CCn1c(C(=O)N2CCCC(C(=O)O)C2)cc2sccc21 (stereo unspecified)	t
O=C(c1ccc(NS(=O)(=O)c2cccs2)cc1)N1CCCCC1	f

Task: Kindly determine if inhibition recorded for COc1ccc(/C(O)=C2\C(=O)C(=O)N(c3cc(C)on3)C2c2ccccc2OC)cc1 (stereo unspecified) is above or exactly 1%.
Result: f

----------
The reader will find reported viability values listed item by item below.
Assay: reduced viability of SK-BR-3 breast cancer cells – cell-based, 24 h, human, pilot screen (AID 572);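 also: compound exposure lasted between 18 and 24 h rather than exactly 24 h; 100% = carrier-treated control wells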
Conditions: SK-BR-3 viability, CellTiter-Glo luminescence, at 10 µM, stronger effect = lower value
Reply numerically in %, unit not repeated.

Answered examples (5):
compound	units.text	viability
COc1ccccc1OCCCn1cc(C(=O)c2ccco2)c2ccccc21	%	106
CC(C)(C)P(=O)(c1ccncc1)N1CCCC1 (stereo not given)	%	111
O=c1[nH]c(=O)n(-c2cccc3ccccc23)c(O)c1C=NCCCn1ccnc1	%	63
O=C(COc1ccc2ccccc2c1)N1CCN(C2CCN(Cc3ccccc3)CC2)CC1	%	93
CCOc1ccc(C2SCC(=O)Nc3c2c(=O)[nH]n3C2CCCCCC2)cc1 (stereo not given)	%	110

Task: Would you kindly share the measured viability for CC1=C(C(=O)OC(C)C)[C@]2(C(=O)N(CC(N)=O)c3ccccc32)C(C#N)=C(N)O1 ?
Result: 92

Task: Would you kindly share the measured viability for O=c1[nH]c(=O)n(Cc2ccco2)c(O)c1C=NCCCn1ccnc1 ?
Result: 88.5

Task: Would you kindly share the measured viability for CC(C)N(CCC(C(N)=O)(c1ccccc1)c1ccccn1)C(C)C (stereo not given) ?
Result: 85

Task: Would you kindly share the measured viability for CC(C)CC12CN3CCN(CC(C3)/C1=N/O)C2 ?
Result: 107

Task: Would you kindly share the measured viability for CN(C)[C@@H]1C(=O)C(C(N)=O)=C(O)[C@@]2(O)C(=O)C3=C(O)c4c(O)cccc4[C@@](C)(O)[C@H]3C[C@@H]12 ?
Result: 91

Task: Would you kindly share the measured viability for CCN1c2nc3c(C)cccn3c(=O)c2CC2(C(=O)N(C)C(=O)N(C)C2=O)C1C (stereo not given) ?
Result: 101

Task: Would you kindly share the measured viability for CCc1ccc(OCCCN=C(C)c2c(O)n(C)c(=O)n(C)c2=O)cc1 ?
Result: 92

Task: Would you kindly share the measured viability for COc1ccccc1-n1c(O)c(C=NCc2ccc3c(c2)OCO3)c(=O)[nH]c1=O ?
Result: 93.5

Task: Would you kindly share the measured viability for COc1ccccc1N1CCN(Cc2cccc(OC)c2O)CC1 ?
Result: 89

Task: Would you kindly share the measured viability for Cc1nc2ccccc2c(=O)n1-c1ccc(F)cc1 ?
Result: 104

Task: Would you kindly share the measured viability for CCN1CCN(Cc2cc(Br)cc(OC)c2O)CC1 ?
Result: 93.5

Task: Would you kindly share the measured viability for O=C(NC1(C(F)(F)F)Oc2ccc(Cl)cc2O1)N1CCC2(CC1)OCCO2 (stereo not given) ?
Result: 91.5

Task: Would you kindly share the measured viability for CN1CCC(OC(=O)C2c3ccccc3Oc3ccccc32)CC1 ?
Result: 96.5
